Attribution: paper PMC8611036

Target: SARS-CoV-2 3CLpro (Severe acute respiratory syndrome coronavirus 2)
Conditions: SARS-CoV pIC50 multiplied by similarity index (SI), training set compounds

Compound | SI*pIC50
NC(=O)c1ccc2c(c1)C(=O)C(=O)N2c1cccc2ccccc12 [CMP118] | 6.584
O=C(Oc1cncc(Cl)c1)c1ccco1 [CMP158] | 7.374
O=C(Oc1cncc(Cl)c1)c1cc2ccccc2oc1=O [CMP162] | 7.11
C=C[C@@]1(C)CC[C@H]2C(=CC[C@@H]3[C@]2(C)CCC[C@@]3(C)C(=O)O)C1 [CMP133] | 3.699
CCOC(=O)C(C#N)=CNc1ccc(S(=O)(=O)c2ccc(NC=C(C#N)C(=O)OCC)cc2)cc1 [CMP122] | 4.948
CCC(C)c1ccc(N(C(=O)c2ccco2)C(C(=O)NC2CCCC2)c2cccnc2)cc1 (stereo not shown) [CMP144] | 5.809
O=C1C(=O)N(C/C=C/c2cc3ccccc3s2)c2ccc(I)cc21 [CMP98] | 4.781
O=C1C=CC(=O)c2cn(Cc3ccccc3)cc21 [CMP111] | 5.307
COc1cc(C=NNC(=O)C(=Cc2ccccc2)NC(=O)c2ccccc2)cc(OC)c1O [CMP123] | 4.265
CC(C)(C)NC(=O)C(c1cccnc1)N(C(=O)c1cccs1)c1ccc(C(C)(C)C)cc1 (stereo not shown) [CMP189] | 4.453
C=CCSc1ccccc1NC(=O)/C=C/c1ccccc1 [CMP106] | 4.857
CCOC(=O)C(=CNc1ccc(S(=O)(=O)c2ccc(/N=C/C(C(=O)OCC)=C(\O)OCC)cc2)cc1)C(=O)OCC [CMP139] | 4.6468
O=C(O)c1ccc(S(=O)(=O)c2cc(Br)c(O)c(Br)c2)cc1 [CMP138] | 4.948
COc1ccc(C(c2c(O)c3cc(C)ccc3oc2=O)c2c(O)c3cc(C)ccc3oc2=O)cc1 [CMP105] | 5.171
O=C1C(=O)N(Cc2ccccc2)c2ccc(S(=O)(=O)N3CCOCC3)cc21 [CMP148] | 5.01
Nc1ncc(S(=O)(=O)c2ccc(Cl)cc2)c(N)n1 [CMP141] | 5.374
O=C(Cc1cncc(Cl)c1)c1cccs1 [CMP181] | 6.453
CC(C)c1cc2c(cc1O)[C@@]1(C)CCC[C@@](C)(CO)[C@@H]1CC2 [CMP173] | 3.808
O=C(Oc1cncc(Cl)c1)c1cccc2ccccc12 [CMP168] | 7.073
